Reported hERG current change (%, negative = inhibition) at 10uM values follow for various compounds
Target: human ether-à-go-go-related gene (hERG) potassium channel (human, UniProt Q12809);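 note: peak tail current of the secondary pulse compared with the same well before compound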
Sequence (Q12809 whole entry, looked up): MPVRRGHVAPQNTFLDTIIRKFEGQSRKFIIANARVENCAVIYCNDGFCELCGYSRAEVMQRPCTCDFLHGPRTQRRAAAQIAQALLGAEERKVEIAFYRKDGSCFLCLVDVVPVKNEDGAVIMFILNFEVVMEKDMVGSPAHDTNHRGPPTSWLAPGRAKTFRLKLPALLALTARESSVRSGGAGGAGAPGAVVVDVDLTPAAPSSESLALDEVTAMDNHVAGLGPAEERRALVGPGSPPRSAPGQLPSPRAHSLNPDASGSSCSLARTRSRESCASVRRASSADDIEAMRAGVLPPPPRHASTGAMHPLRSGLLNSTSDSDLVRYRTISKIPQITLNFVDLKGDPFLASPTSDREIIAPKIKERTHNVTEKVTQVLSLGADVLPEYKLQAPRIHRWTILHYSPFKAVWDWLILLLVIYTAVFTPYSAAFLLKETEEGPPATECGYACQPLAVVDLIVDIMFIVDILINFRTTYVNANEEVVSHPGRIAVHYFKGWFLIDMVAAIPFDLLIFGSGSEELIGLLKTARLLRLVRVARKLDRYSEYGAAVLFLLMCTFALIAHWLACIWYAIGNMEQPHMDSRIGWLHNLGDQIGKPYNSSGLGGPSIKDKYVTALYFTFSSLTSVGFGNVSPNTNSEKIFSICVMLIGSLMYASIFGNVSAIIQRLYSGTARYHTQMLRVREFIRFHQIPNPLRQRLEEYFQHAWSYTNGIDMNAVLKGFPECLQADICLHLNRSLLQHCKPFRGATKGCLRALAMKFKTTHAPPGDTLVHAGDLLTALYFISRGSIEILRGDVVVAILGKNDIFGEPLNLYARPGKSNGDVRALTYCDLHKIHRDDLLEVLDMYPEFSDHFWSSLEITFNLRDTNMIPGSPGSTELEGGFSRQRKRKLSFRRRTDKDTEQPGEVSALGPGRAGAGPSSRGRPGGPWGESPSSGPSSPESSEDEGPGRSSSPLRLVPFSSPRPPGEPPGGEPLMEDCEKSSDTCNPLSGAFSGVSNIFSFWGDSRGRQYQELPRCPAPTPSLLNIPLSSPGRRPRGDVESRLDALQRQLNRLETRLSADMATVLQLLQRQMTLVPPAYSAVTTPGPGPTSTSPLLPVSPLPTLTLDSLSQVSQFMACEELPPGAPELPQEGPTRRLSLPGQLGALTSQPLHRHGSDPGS
Experiment: primary screen, population patch clamp on CHO cells stably expressing hERG; higher = less effect of the substance
In all, about 310,000 compounds went through this assay and about 14,000 (4.5%) showed an effect of 50% or more. The effect is printed as a negative number. This excerpt belongs to a sample that is enriched for strong results.
QUANTITY: hERG current change (%, negative = inhibition) at 10uM (%)

| COMPOUND | UNIT | RESULT_VALUE |
| --- | --- | --- |
| O=c1c(Cc2ccc(Cl)cc2Cl)c(O)ccn1CC(F)(F)F | % | 12.7 |
| O=C(NCCC1CCCCN1S(=O)(=O)c1ccc(F)cc1)C(=O)NCc1ccccn1 (stereo not drawn) | % | -11.9 |
| O=C(O)CCC(=O)NNC(=O)c1cccc(Br)c1 | % | -0.791 |
| c1ccc(CCC2Cc3ccccc3N2)cc1 (stereo not drawn) | % | -0.839 |
| [Cl-].c1ccc(CC[C@@H]2CC[C@@H](CCc3ccccc3)N2)cc1 | % | -66 |
| COc1ccc(CC(=O)Nc2cc(Cl)ccc2O)cc1 | % | -1.45 |

---

Molecular target: human ether-à-go-go-related gene (hERG) potassium channel (human, UniProt Q12809);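 note: peak tail current of the secondary pulse compared with the same well before compound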
Assay: primary screen, population patch clamp on CHO cells stably expressing hERG; higher = less effect of the substance
The campaign covered roughly 310,000 compounds. About 14,000 (4.5%) showed an effect of 50% or more. The effect is printed as a negative number. This is one part of a sample in which strong results are shown more often than they occur.
Assign class by hERG current change (%, negative = inhibition) at 10uM: not lower than -30% means Condition met; lower than -30% means Condition not met.

| MOLECULE | ASSIGNED_CATEGORY |
| --- | --- |
| CCOC(=O)C1CCCN(CCC(=O)Nc2ccc(Br)cc2)C1.Cl (stereo not drawn) | Condition not met |
| COc1cccc(/C=N/NC(=O)CC(=O)NCCc2ccccc2)c1OC | Condition met |
| CCOC(=O)C1CCCN(CCC(=O)Nc2ccc3c(c2)CCC3)C1 (stereo not drawn) | Condition not met |
| CCOC(=O)C1CCCN(CCC(=O)Nc2cccc(C)c2)C1.Cl (stereo not drawn) | Condition met |
| CCOC(=O)C1CCCN(CCC(=O)Nc2cc(C)cc(C)c2)C1 (stereo not drawn) | Condition not met |

---

Target: human ether-à-go-go-related gene (hERG) potassium channel (human, UniProt Q12809);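 note: peak tail current of the secondary pulse compared with the same well before compound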
Assay: primary screen, population patch clamp on CHO cells stably expressing hERG; higher = less effect of the substance
About 14,000 (4.5%) of roughly 310,000 compounds showed an effect of 50% or more. The effect is printed as a negative number. Shown is part of a subset that was picked to be rich in strong results.
Reported hERG current change (%, negative = inhibition) at 10uM values follow for various molecules
QUANTITY: hERG current change (%, negative = inhibition) at 10uM (%)

| MOLECULE | TESTED_ON | UNIT | RESULT_VALUE |
| --- | --- | --- | --- |
| O=C(O)c1ccc(COCC(F)(F)C(F)F)o1 | human ether-à-go-go-related gene (hERG) potassium channel (human, UniProt Q12809) | % | 16 |
| O=C(CN1CC[n+]2c(-c3cccs3)csc21)c1ccc(-c2ccccc2)cc1.[Br-] | human ether-à-go-go-related gene (hERG) potassium channel (human, UniProt Q12809) | % | -54.3 |
| COc1ccc(CN(C(=O)c2ccc(CN3CCOCC3)o2)C(C(=O)NCC2CCCO2)c2ccc(F)cc2)cc1 (stereo not shown) | human ether-à-go-go-related gene (hERG) potassium channel (human, UniProt Q12809) | % | -4.38 |
| O=C(CN(Cc1ccccc1)S(=O)(=O)c1ccccc1)N/N=C/c1ccc2c(c1)OCO2 | human ether-à-go-go-related gene (hERG) potassium channel (human, UniProt Q12809) | % | 8.28 |
| COc1cccc(CN(C)C(=O)c2ccccc2Sc2ccccc2C#N)c1 | human ether-à-go-go-related gene (hERG) potassium channel (human, UniProt Q12809) | % | -13.4 |
| COc1ccc(CNC(=O)CC(C)S(=O)(=O)c2ccc3c(c2)NC(=O)CO3)cc1 (stereo not shown) | human ether-à-go-go-related gene (hERG) potassium channel (human, UniProt Q12809) | % | 10.1 |
| CN(Cc1ccc(OC(F)F)cc1)C(=O)c1ccc2c(=O)n3c(nc2c1)CCC3 | human ether-à-go-go-related gene (hERG) potassium channel (human, UniProt Q12809) | % | -33.3 |
| Cc1ccc(CN2CCN(C(=O)CCc3ccccc3)CC2)cc1 | human ether-à-go-go-related gene (hERG) potassium channel (human, UniProt Q12809) | % | -19.1 |
| Cc1ccc(OCC(=O)N2CCN(CC3CC4C=CC3C4)CC2)cc1.O=C(O)C(=O)O (stereo not shown) | human ether-à-go-go-related gene (hERG) potassium channel (human, UniProt Q12809) | % | -24.3 |
| Cc1ccc(CN(C)C(=O)c2ccccc2Sc2ccccc2C#N)cc1 | human ether-à-go-go-related gene (hERG) potassium channel (human, UniProt Q12809) | % | 23.4 |
| Cc1cccc(OCC(=O)N2CCN(Cc3ccc4c(c3)OCO4)CC2)c1.O=C(O)C(=O)O | human ether-à-go-go-related gene (hERG) potassium channel (human, UniProt Q12809) | % | -16.7 |
| COc1cc(C2/C(=C(/O)c3ccccc3)C(=O)C(=O)N2c2ccccn2)ccc1O (stereo not shown) | human ether-à-go-go-related gene (hERG) potassium channel (human, UniProt Q12809) | % | 25.1 |
| COc1cccc(CN(C)C(=O)c2ccc3nccnc3c2)c1 | human ether-à-go-go-related gene (hERG) potassium channel (human, UniProt Q12809) | % | -6.89 |
| O=C(COc1ccc(S(=O)(=O)N2CCCCC2)cc1)N1CCN(Cc2ccccc2)CC1 | human ether-à-go-go-related gene (hERG) potassium channel (human, UniProt Q12809) | % | -32.5 |
| CN(Cc1ccc(OC(F)F)cc1)C(=O)c1ccc2nccnc2c1 | human ether-à-go-go-related gene (hERG) potassium channel (human, UniProt Q12809) | % | -67.8 |
| COc1nc(NC2CCCCC2)nc(N2CCCCCC2)n1 | human ether-à-go-go-related gene (hERG) potassium channel (human, UniProt Q12809) | % | 4.84 |
| Cc1cccc(OCC(=O)N2CCN(Cc3ccc([N+](=O)[O-])cc3)CC2)c1.O=C(O)C(=O)O | human ether-à-go-go-related gene (hERG) potassium channel (human, UniProt Q12809) | % | -73 |
| O=C(COc1ccc(Cl)cc1)N1CCN(Cc2ccccc2)CC1 | human ether-à-go-go-related gene (hERG) potassium channel (human, UniProt Q12809) | % | -32.9 |
| Cc1ccc(OCC(=O)N2CCN(Cc3ccc([N+](=O)[O-])cc3)CC2)cc1.O=C(O)C(=O)O | human ether-à-go-go-related gene (hERG) potassium channel (human, UniProt Q12809) | % | -81.2 |
